Measured values drawn from patent US20070179295A1 for this set.

# testMethodNotes: logP determination through HPLC (EEC directive 79/831 Annex V. A8, gradient method, acetonitrile/0.1% aqueous phosphoric acid)
# Format: physicochemical
# experimentalConditions: Table 1, compounds of formula (I); HPLC gradient method, acetonitrile/0.1% aqueous phosphoric acid
readoutName: logP

compound: CC1CCN(c2c(-c3ccsc3)c(Cl)nc3nc(C4CC4)nn23)CC1
logP: 4.23

(A) CC(Nc1c(-c2ncncc2Cl)c(Cl)nc2nc(C3CC3)nn12)C(F)(F)F (stereo not drawn) [Example 8]
(B) CC(C)(C)CNc1c(-c2cc(Cl)sc2Cl)c(Cl)nc2nc(C3CC3)nn12
Problem: Which has the higher logP, A or B ? Reply briefly: the label of your chosen item.
Result: B
